Answer each item with its documented logIC50 GIM-1.
# systemTested: GIM-1 (Pseudomonas aeruginosa)
# Sequence (Q704V1 entry or part of it): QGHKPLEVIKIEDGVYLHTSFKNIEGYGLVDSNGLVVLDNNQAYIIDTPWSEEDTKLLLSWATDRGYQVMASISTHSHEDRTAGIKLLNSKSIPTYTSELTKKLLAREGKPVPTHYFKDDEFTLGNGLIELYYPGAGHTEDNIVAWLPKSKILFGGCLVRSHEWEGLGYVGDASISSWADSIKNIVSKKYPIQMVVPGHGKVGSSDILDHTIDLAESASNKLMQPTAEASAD
# methodSummary: Enzymatic metallo-β-lactamase assay on purified GIM-1
# Type: biochemical
# runParameters: log of IC50; ± SEM of logIC50
Express your answer in μM, writing the number without its unit.

Identify logIC50 GIM-1 associated with the compound O=C(Cc1csc2ccccc12)NC(c1ccccc1O)P(=O)(O)O (stereo not shown) 1.71

Identify logIC50 GIM-1 associated with the compound O=C(NC(c1ccccc1O)P(=O)(O)O)c1cc2c(s1)CCCC2 (stereo not shown) 1.73

Identify logIC50 GIM-1 associated with the compound O=C(Cc1ccccc1)NC(c1ccccc1O)P(=O)(O)O (stereo not shown) 2.08

Identify logIC50 GIM-1 associated with the compound O=C(Cc1ccsc1)NC(c1ccccc1O)P(=O)(O)O (stereo not shown) 2.01

Identify logIC50 GIM-1 associated with the compound O=C(Cc1cccs1)NC(c1ccccc1O)P(=O)(O)O (stereo not shown) 2.28

Identify logIC50 GIM-1 associated with the compound O=C(NC(c1ccccc1O)P(=O)(O)O)c1ccsc1 (stereo not shown) 2.37

Identify logIC50 GIM-1 associated with the compound O=C(NC(c1ccccc1O)P(=O)(O)O)c1ccccc1 (stereo not shown) 1.54

Identify logIC50 GIM-1 associated with the compound O=C(Cc1cc2ccccc2s1)NC(c1ccccc1O)P(=O)(O)O (stereo not shown) 1.90

Identify logIC50 GIM-1 associated with the compound O=C(NC(c1ccccc1O)P(=O)(O)O)c1cccs1 (stereo not shown) 1.30

Identify logIC50 GIM-1 associated with the compound O=C(NC(c1ccccc1O)P(=O)(O)O)c1scc2c1CCCC2 (stereo not shown) 1.33

Identify logIC50 GIM-1 associated with the compound O=C(NC(c1ccccc1O)P(=O)(O)O)c1cc2ccccc2s1 (stereo not shown) 2.01

Identify logIC50 GIM-1 associated with the compound O=C(NC(c1ccccc1O)P(=O)(O)O)c1csc2ccccc12 (stereo not shown) 1.01

Identify logIC50 GIM-1 associated with the compound O=C(NC(c1ccccc1O)P(=O)(O)O)c1csc2c1CCCC2 (stereo not shown) 1.71

The measured values listed here are drawn from paper PMC12009420.
